Numbers sourced from patent US20230078764A1.

Molecular target: human SCD1 (Homo sapiens, UniProt O00767)
Construct: expressed in transfected cells; host or cells: yeast strain with OLE1 deleted, plasmid-borne human SCD1 (selected in SD-Ura)
Sequence (O00767 1-359): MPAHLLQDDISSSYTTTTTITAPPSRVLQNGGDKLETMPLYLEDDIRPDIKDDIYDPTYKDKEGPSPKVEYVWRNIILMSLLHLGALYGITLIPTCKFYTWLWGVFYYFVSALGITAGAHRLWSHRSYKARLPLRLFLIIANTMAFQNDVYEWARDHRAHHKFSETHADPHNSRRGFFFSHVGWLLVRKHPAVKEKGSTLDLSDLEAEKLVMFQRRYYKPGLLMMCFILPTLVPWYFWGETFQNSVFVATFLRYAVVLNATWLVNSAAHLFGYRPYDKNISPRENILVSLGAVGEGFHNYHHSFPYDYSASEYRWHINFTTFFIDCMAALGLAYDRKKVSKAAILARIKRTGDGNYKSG
Test: Growth inhibition of yeast strain expressing human SCD1 as sole desaturase (OLE1 deleted), OD600 readout
Type: cell-based
Details: yeast strain expressing human SCD1 as sole desaturase; growth (OD600) after 40 h at 30° C.; read-out: SCD1 IC50
// classify: if (IC50 < 500 nM) Criterion met else Criterion not met

1. CN1N=C(C(=O)Nc2ncc(C(C)(O)c3cccc(F)c3)s2)CCC1=O (stereo not drawn) [Compound 419]    Criterion not met
2. O=C(Nc1ccc(Cc2cccc(F)c2)cn1)c1ncc(Br)cn1 [Compound 490]    Criterion not met

Does this compound meet the criterion IC50 < 500 nM? Cn1nc(NC(=O)N2CCC(Cc3cccc(Cl)c3)CC2)ccc1=O [Compound 309]
Criterion not met

Does this compound meet the criterion IC50 < 500 nM? N#Cc1ccc(C(=O)Nc2ccc(Cc3cccc(F)c3)cn2)nc1 [Compound 135]
Criterion not met

Does this compound meet the criterion IC50 < 500 nM? Cn1nc(C(=O)Nc2ccc(Cc3ccc(F)c(C(F)F)c3)cn2)ccc1=O [Compound 575]
Criterion met

Does this compound meet the criterion IC50 < 500 nM? CN1N=C(C(=O)Oc2ccc(NCc3cc(F)cc(C#N)c3)nc2)CCC1=O [Compound 269]
Criterion not met

Does this compound meet the criterion IC50 < 500 nM? C#CCn1nc(C(=O)Nc2ccc(Cc3cccc(Cl)c3)cn2)ccc1=O [Compound 501]
Criterion met

Does this compound meet the criterion IC50 < 500 nM? CC(O)c1ccc(C(=O)Nc2ccc(Cc3cccc(Cl)c3)cn2)nn1 (stereo not drawn) [Compound 512]
Criterion met

Does this compound meet the criterion IC50 < 500 nM? N#Cc1ccc(C(=O)Nc2ccc(Cc3cccc(F)c3)cn2)cc1 [Compound 133]
Criterion not met
